Reported IC50 on Beta-secretase 1 (Homo sapiens) for assorted compounds, compiled from publications.
The figure you give is taken to be in nM; do not add the unit.

Record excerpt, results attached:
COMPOUND	VAL
O=C(Nc1cc(Br)ccc1N1CCN(CCc2cc3ccccc3[nH]2)CC1)c1cc2ccccc2o/c1=N\c1ccccc1	928
CCCCS(=O)(=O)C[C@@H](NC(=O)OCc1ccncc1)C(=O)N[C@@H](Cc1cc(F)cc(F)c1)[C@H](O)CNCc1cccc(CC)c1	11
O=C(N[C@@H](Cc1ccccc1)[C@H](O)C(=O)Nc1cccc(-c2nnn[nH]2)c1)c1cc(O)cc(C(=O)N2COC[C@@H]2c2ccccc2)n1	360

**Query** Write down measured IC50 (Beta-secretase 1 (Homo sapiens)) for this compound. C[C@@]1(c2cc(NC(=O)c3ccn(C(F)F)n3)ccc2F)C=C(CF)OC(N)=N1
**Result** 82.3

---

Reported IC50 on Beta-secretase 1 (Homo sapiens, UniProt P56817) for assorted molecules, compiled from publications.
Sequence (P56817 whole entry): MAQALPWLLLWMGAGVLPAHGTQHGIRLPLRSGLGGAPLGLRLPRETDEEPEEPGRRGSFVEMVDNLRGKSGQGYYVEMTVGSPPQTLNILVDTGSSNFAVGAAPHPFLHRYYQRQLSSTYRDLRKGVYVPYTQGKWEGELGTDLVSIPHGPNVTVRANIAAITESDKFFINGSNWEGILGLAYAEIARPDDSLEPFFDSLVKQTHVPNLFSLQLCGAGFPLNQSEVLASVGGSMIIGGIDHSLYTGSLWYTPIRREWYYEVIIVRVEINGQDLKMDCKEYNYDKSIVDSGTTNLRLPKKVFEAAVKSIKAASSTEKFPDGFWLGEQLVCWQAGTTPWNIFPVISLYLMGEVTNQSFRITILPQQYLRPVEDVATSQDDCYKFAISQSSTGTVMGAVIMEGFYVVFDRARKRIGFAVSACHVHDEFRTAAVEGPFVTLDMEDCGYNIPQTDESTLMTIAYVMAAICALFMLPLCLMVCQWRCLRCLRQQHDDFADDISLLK

MOLECULE	TEST READOUT	VAL
CC(C)C[C@H](NC(=O)[C@H](C)NC(=O)[C@H](CCCNC(=N)N)NC(=O)OCc1ccccc1)[C@@H](O)CC(=O)NCCc1ccc(Cl)cc1	IC50	> 100000 nM
COc1cccc2cc(C(=O)Nc3cc(Br)ccc3N3CCOCC3)c(=O)oc12	IC50	10000 nM
CC(C)n1cc(C2(c3ccc(F)c(-c4cncnc4)c3)N=C(N)N(C)C2=O)cn1 (racemic)	IC50	80 nM
CCCNC(=O)c1cc(C(N)=O)cc(C(=O)N[C@@H](Cc2ccccc2)[C@H](O)CNCc2cccc(OC)c2)c1	IC50	1900 nM
CC(C)CC(NC(=O)Cc1ccc(-c2ccccc2)cc1)[C@@H](O)CC(=O)N[C@@H](C(=O)N[C@H](C)C(=O)N[C@H](CCC(=O)O)C(=O)N[C@H](Cc1ccccc1)C(=O)O)C(C)C (stereo not given in full)	IC50	56000 nM
O=C(c1ccccc1)N(CCc1ccccc1)CC(O)Cn1c2ccccc2c2ccccc21 (stereo not given)	IC50	4800 nM

**Query** Return value of IC50 for input COCCCC1NC(=O)c2cc(cc(N(C)S(C)(=O)=O)c2)C(=O)N[C@H]([C@@H](O)C[C@H](C(=O)NCC(C)C)C(C)C)COCc2cccc1c2 (stereo not given in full) , no commentary.
**Result** 1900 nM

**Query** Return value of IC50 for input CN1C(=O)C(c2ccccc2)(c2cccc(Cl)c2)N=C1N (stereo not given) , no commentary.
**Result** 2500 nM

**Query** Return value of IC50 for input O=C(CSc1nc2ccc(Nc3nc(N4CCCC4)nc(N4CCCC4)n3)cc2s1)Nc1ccccc1 , no commentary.
**Result** 120 nM

**Query** Return value of IC50 for input CS(=O)(=O)Nc1cc(Nc2cc(-c3ccccc3)ncn2)ccc1Br , no commentary.
**Result** 30000 nM

**Query** Return value of IC50 for input O=C(O)c1cc(-c2ccc(/C=N/Nc3nc(Nc4ccccc4)nc(N4CCCCC4)n3)o2)ccc1Cl , no commentary.
**Result** 152000 nM

**Query** Return value of IC50 for input C[C@@H](NC(=O)c1cc(-c2cn([C@H](CNCc3cccc(Br)c3)Cc3ccccc3)nn2)cc(N(C)S(C)(=O)=O)c1)c1ccccc1 , no commentary.
**Result** 2000 nM

**Query** Return value of IC50 for input C[C@@H](NC(=O)c1cc(OCC(=O)NCCCCCN)cc(OS(=O)(=O)Cc2ccccc2)c1)c1ccccc1 , no commentary.
**Result** 3400 nM

**Query** Return value of IC50 for input C[C@@H](NC(=O)c1cc(C(=O)N[C@@H](Cc2ccccc2)[C@H](O)CNCc2ccc3cc[nH]c3c2)cc(N(C)S(C)(=O)=O)c1)c1ccccc1 , no commentary.
**Result** 620 nM

**Query** Return value of IC50 for input O=C(CSc1nc2ccc(Nc3nc(N4CCCCC4)nc(N4CCCCC4)n3)cc2s1)Nc1ccccc1 , no commentary.
**Result** > 50000 nM

**Query** Return value of IC50 for input Cc1ccc(Nc2cc(-c3ccc(CCCO)cc3)ncn2)cc1NS(C)(=O)=O , no commentary.
**Result** 37000 nM

**Query** Return value of IC50 for input CN(c1cc(/C=C\C2CC2)cc(C(=O)N[C@@H](Cc2ccccc2)[C@H](O)CNC2CC2)c1)S(C)(=O)=O , no commentary.
**Result** 35 nM

**Query** Return value of IC50 for input COc1ccc(-c2cc(=O)c3c(O)cc(OC)c(-c4cc(-c5cc(=O)c6c(O)cc(O)cc6o5)ccc4O)c3o2)cc1 , no commentary.
**Result** > 10000 nM

**Query** Return value of IC50 for input O=C(Nc1cc(Br)ccc1N1CCN(C(=O)c2cccc([N+](=O)[O-])c2)CC1)c1cc2ccccc2o/c1=N\c1ccccc1 , no commentary.
**Result** 26400 nM

**Query** Return value of IC50 for input CCC(C)C[C@H](NC(=O)[C@H](CC(C)C)NC(C)=O)[C@@H](O)CC(=O)N[C@@H](Cc1ccccc1)[C@@H](O)CC(=O)N[C@H](C(=O)NCc1ccc(C(=O)O)cc1)C(C)C (stereo not given in full) , no commentary.
**Result** 21 nM

**Query** Return value of IC50 for input COc1cccc(-c2cccc(C3(c4ccccc4)N=C(N)N(C)C3=O)c2)c1F (stereo not given) , no commentary.
**Result** 220 nM

**Query** Return value of IC50 for input Cc1cc(C)nc(N/C(=N\C(=O)N2c3ccccc3Sc3ccccc32)Nc2cccc([N+](=O)[O-])c2)n1 , no commentary.
**Result** 28600 nM

**Query** Return value of IC50 for input COC(=O)[C@@H]1CC(NC(=O)[C@H](NC(=O)C[C@H](O)[C@@H](Cc2cc(F)cc(F)c2)NC(=O)C(O)c2ccccc2-c2ccccc2)C(C)C)C[C@H](C(=O)OC)C1 (single isomer, unassigned; isomer 2) , no commentary.
**Result** 10000 nM

**Query** Return value of IC50 for input COc1ccc(-c2cc(=O)c3c(O)cc(O)c(-c4cc(-c5cc(=O)c6c(O)cc(O)cc6o5)ccc4O)c3o2)cc1 , no commentary.
**Result** 990 nM

**Query** Return value of IC50 for input CC(C)C[C@H](NC(=O)[C@@H](NC(=O)[C@@H](N)CNC(=O)c1cc(O)ccc1O)C(C)C)C(=O)N[C@@H](Cc1ccccc1)[C@@H](O)C(=O)Nc1cccc(-c2nc(=S)o[nH]2)c1 , no commentary.
**Result** 10.6 nM

**Query** Return value of IC50 for input CCCC(CCC)S(=O)(=O)C[C@@H](NC(=O)OCc1ccccc1)C(=O)N[C@@H](Cc1cc(F)cc(F)c1)[C@H](O)CNCc1cccc(CC)c1 , no commentary.
**Result** 3 nM
